# Test system: K-562 leukemia
# test_details: NCI-60 one-dose screen, 48 h (100 = growth as untreated, 0 = no growth, -100 = all killed)
# cond: 10 µM unless noted
About 83,000 compounds went through this panel and 20% of them were active in at least one assay; those are over-represented in the sample as a whole.
Would you mind labelling by growth? At or over 50% is Condition met, under is Condition not met.

Given c1ccc(-c2n(Cc3ccc4ccccc4c3)cc[n+]2Cc2ccc3ccccc3c2)cc1 , state whether its growth is at least 50%. Condition not met

Given CC(=O)Nc1cc2c3c(cccc3c1)-c1ccccc1-2 , state whether its growth is at least 50%. Condition met

Given N#Cc1c(NC(=O)c2ccco2)[n+]([O-])c2ccccc2[n+]1[O-] , state whether its growth is at least 50%. Condition met

Given CCOC(=O)OCC(=O)[C@@]1(O)CC[C@H]2[C@@H]3CCC4=CC(=O)CC[C@]4(C)[C@H]3[C@@H](O)C[C@@]21C , state whether its growth is at least 50%. Condition met

Given O=C(O)CCC(=O)OC[C@@H](NC(=O)C(Cl)Cl)[C@H](O)c1ccc([N+](=O)[O-])cc1 , state whether its growth is at least 50%. Condition met

Given Cc1ccc(C2=Nc3c(ccc4c(C)c(C)c(=O)oc34)OC2)cc1 , state whether its growth is at least 50%. Condition met

Given CCOC(=O)c1sc(NC(=O)COc2cccc(/C=C3\CCc4cc(OC)ccc4C3=O)c2)nc1C , state whether its growth is at least 50%. Condition not met

Given O=[N+]([O-])c1ccc(N=Nc2c(Cl)cc(O)cc2Cl)cc1 , state whether its growth is at least 50%. Condition not met

Given N[C@H](CS)C(=O)O , state whether its growth is at least 50%. Condition met

---

# Test system: SNB-75 CNS
# test_details: NCI-60 one-dose screen, 48 h (100 = growth as untreated, 0 = no growth, -100 = all killed)
# cond: 10 µM unless noted
This is part of a sample that, as a whole, favours compounds with a hit. Of some 83,000 tested, about 20% had one in any assay.
Would you mind labelling by growth? At or over 90% is T, under is F.

Given CC[n+]1c(/C=C/c2ccc(N3CCCC3)cc2)cccc1/C=C/c1ccc(N2CCCC2)cc1 , state whether its growth is at least 90%. F

Given COC(=O)c1cc2oc(/C=N\NC(=O)c3cc4oc(C)c(C)c4[nH]3)cc2[nH]1 , state whether its growth is at least 90%. T

Given Fc1ccccc1C1c2ccccc2-c2nccn21 (stereo not given) , state whether its growth is at least 90%. T

Given c1ccc(-c2n(Cc3ccc4ccccc4c3)cc[n+]2Cc2ccc3ccccc3c2)cc1 , state whether its growth is at least 90%. F

Given Cc1[nH]ccc2cc3nc4ccccc4c3cc12 , state whether its growth is at least 90%. F

Given Cc1cn(C(C=O)OC(C=O)CO)c(=O)[nH]c1=O (stereo not given) , state whether its growth is at least 90%. F

Given O=[N+]([O-])c1ccc(NS(=O)(=O)c2ccc(Cl)c(Cl)c2)cc1 , state whether its growth is at least 90%. F

Given O=CN1N=C(c2ccc(Nc3ccnc4cc(Cl)ccc34)cc2)CC1c1ccc(Cl)cc1 (stereo not given) , state whether its growth is at least 90%. F

Given CCOC(=O)C(Br)=P(c1ccccc1)(c1ccccc1)c1ccccc1 , state whether its growth is at least 90%. T

Given C[C@H]1O[C@@H](O[C@H]2[C@@H](O)C[C@H](O[C@H]3[C@@H](O)C[C@H](O[C@H]4CC[C@]5(C)C6CC[C@]7(C)[C@@H](C8=CC(=O)OC8)CC[C@]7(O)C6CC[C@@H]5C4)O[C@@H]3C)O[C@@H]2C)C[C@H](O)[C@@H]1O (stereo not given in full) , state whether its growth is at least 90%. F

Given Cc1ccc(C(NC(=O)c2ccccc2)c2ccc3cccnc3c2O)cc1 (stereo not given) , state whether its growth is at least 90%. F

Given COc1ccc2c(c1)sc1nc(-c3ccc(N(C)C)cc3)cn12 , state whether its growth is at least 90%. T

Given CCOC(=O)C1C(=O)NC(C(=O)OCC)(C(=O)OCC)C1CC (stereo not given) , state whether its growth is at least 90%. T

Given COc1ccc(C2=NN(C(C)=O)C(c3c(C)nn(-c4ccccc4)c3N3CCOCC3)C2)cc1 (stereo not given) , state whether its growth is at least 90%. F

Given CCOC(CNCc1cc(C)c2[nH]c3ccccc3c2c1C)OCC , state whether its growth is at least 90%. F

Given O=C(COc1ccc(/C=C2\Cc3ccccc3C2=O)cc1)c1ccc(Cl)cc1 , state whether its growth is at least 90%. T

Given Cc1[nH]c(=O)[nH]c(=O)c1CCSSCCc1c(C)[nH]c(=O)[nH]c1=O , state whether its growth is at least 90%. T

Given COc1ccc2c(c1)sc1nc(-c3ccc(Br)cc3)cn12 , state whether its growth is at least 90%. T

Given CCc1ccc(-c2nc(SCC(=O)NC3CCCCC3)n[nH]2)cc1 , state whether its growth is at least 90%. F
